- measured-on: SARS-CoV-2 PLpro (Severe acute respiratory syndrome coronavirus 2, UniProt P0DTD1)
- experiment: biochemical
- Assay type: biochemical
- experimental-context: IC50 (50% inhibition of PLpro anti-proteolytic activity), 50 nM PLpro, 50 μM Z-RLRGG-AMC, 10 mM DTT, pH 8.0, 37 °C; mean ± SD
Doc: threshold 30 µM (exclusive). Items with IC50 beneath it return Criterion met; others return Criterion not met.

Completed entries (count: 6):
INSERT INTO assay_data (compound, class) VALUES
  ('O=c1cc(-c2ccc(Oc3c(O)cc4oc(-c5ccc(O)cc5)cc(=O)c4c3O)cc2)oc2cc(O)cc(O)c12', 'Criterion met'),
  ('O=c1cc(-c2ccc(O)c(-c3c(O)cc(O)c4c(=O)cc(-c5ccc(O)cc5)oc34)c2)oc2cc(O)cc(O)c12', 'Criterion met'),
  ('COc1ccc(-c2cc(=O)c3c(O)cc(O)c(-c4cc(-c5cc(=O)c6c(O)cc(O)cc6o5)ccc4O)c3o2)cc1', 'Criterion not met'),
  ('O=C1c2c(O)cc(O)cc2O[C@H](c2ccc(O)cc2)[C@H]1c1c(O)cc(O)c2c(=O)cc(-c3ccc(O)c(O)c3)oc12', 'Criterion not met'),
  ('O=c1cc(-c2ccc(O)cc2)oc2cc(O)cc(O)c12 [Apigenin, apigenin, reference compound]', 'Criterion not met'),
  ('COc1ccc(-c2cc(=O)c3c(O)cc(O)c(-c4cc(-c5cc(=O)c6c(O)cc(O)cc6o5)ccc4OC)c3o2)cc1', 'Criterion not met');

# ---- query compound ----
**Query** In the record for COc1ccc(-c2cc(=O)c3c(O)cc(O)cc3o2)cc1 [Acacetin, acacetin, reference compound] , is IC50 less than 30 µM?
**Result** Criterion not met
